These entries and their values trace back to PubChem BioAssay (NCI).

Test system: OVCAR-3 ovarian
Protocol text: NCI tumour cell line growth inhibition, 48 h
Quantity name: TGI (µM)
// return numeric value only (unit: µM, not printed)

Query: TGI; subject: CCN(Cc1cc(F)ccc1F)c1ccc(CO)c(Cl)c1
0.861

Which measured TGI value corresponds to CCn1c(-c2cc3c([nH]c4ccccc43)c(-c3cccc(O)c3)n2)n[nH]c1=S ?
11.4

Please give the measured TGI for this compound: CCN1CCN(Cc2ccc(NC(=O)Nc3nc4ccc(Oc5ccnc(C(=O)NC)c5)cc4s3)cc2C(F)(F)F)CC1
3.59

Bench note: what TGI did CC[C@@]1(OC(=O)CN)C(=O)OCc2c1cc1n(c2=O)Cc2c-1nc1cc3c(cc1c2CCl)OCO3 show?
4.1

Entry under review: C#CCNC(=S)N/N=C(\C)c1ccccn1 . Reported TGI?
19.4

// TGI lookup, key: CCOC(=O)c1c(C)n(Cc2ccc(Cl)cc2Cl)c2c1cc1oc(=O)c(=O)n3cnc2c13
31.9

Sample O=C1C2=C(C(=O)c3cnccc31)C1C=CC2CC1 (stereo not given) — what was its TGI?
3.66
